B1: CPN1 (parent)
chain: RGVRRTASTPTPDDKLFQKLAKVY

Variants of: B1
Experiment: protein stability index of a GFP-peptide fusion (GPS, HEK-293T) (PSI 1-6); higher = more stable;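 note: lentivirally expressed fusions sorted by FACS into six bins by GFP to DsRed ratio, PSI derived from sequencing read proportions per bin multiplied by bin number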
Conditions: c terminus: a fixed tail appended
Parameter threshold = 2. Response is criterion met when protein stability index meets or exceeds it, else criterion not met.

- MUTATION_LIST: "K15R"
  CLASS_LABEL: "criterion not met"
- MUTATION_LIST: "K22W"
  CLASS_LABEL: "criterion met"
- MUTATION_LIST: "Y24D"
  CLASS_LABEL: "criterion met"
- MUTATION_LIST: "K22V"
  CLASS_LABEL: "criterion met"
- MUTATION_LIST: "D14L"
  CLASS_LABEL: "criterion not met"
- MUTATION_LIST: "P12A"
  CLASS_LABEL: "criterion met"
- MUTATION_LIST: "K15A"
  CLASS_LABEL: "criterion not met"
- MUTATION_LIST: "R1S"
  CLASS_LABEL: "criterion met"
- MUTATION_LIST: "S8Q"
  CLASS_LABEL: "criterion met"
- MUTATION_LIST: "A21R"
  CLASS_LABEL: "criterion not met"

Given the entry `T6L` , answer whether its protein stability index meets or surpasses 2.
criterion not met

Check if protein stability index >= 2 (inclusive). Item: `D14T`
criterion met

Item `S8D` with protein stability index of 2 or above?
criterion met

Test whether the variant `T6C` records protein stability index of 2 or higher.
criterion not met

For this variant, is measured protein stability index 2 or higher? `R5Q`
criterion met

Test whether the variant `T6P` records protein stability index of 2 or higher.
criterion not met

Quick check, protein stability index >= 2? `V23S`
criterion met

Tell me whether protein stability index is at least 2 here: `D13Y`
criterion met

Check the entry `A7C` : does protein stability index equal or exceed 2?
criterion not met

Is it the case that `R5N` has protein stability index reaching or exceeding 2?
criterion met
